assay: HPLC capacity factor (k'); assay type: ADME
Everything with Log k' lower than 0.5 is rule not met; everything else, including exactly 0.5, is rule met.

compound="CCCCCCOC(=O)NC1=NC(c2ccc(Cl)cc2)CN1 (configuration not stated)" assigned_class="rule met"
compound="CCN1CC(c2ccccc2)N=C1NC(=O)OC (configuration not stated)" assigned_class="rule not met"
compound="CCC(=O)NC1=NC(c2ccccc2)CN1 (configuration not stated)" assigned_class="rule not met"
compound="COC(=O)NC1=NC(c2ccccc2-c2ccccc2)CN1 (configuration not stated)" assigned_class="rule met"
compound="COC(=O)NC1=NC(c2ccccc2)C(C)N1 (configuration not stated)" assigned_class="rule not met"
compound="COC(=O)NC1=NC2c3ccccc3CC2N1 (configuration not stated)" assigned_class="rule not met"

---

LD50: recorded values
assay: Lethal dose in mouse, in groups of ten; type: toxicity, organism-based; conditions: in vivo
parameter: LD50 (mg/kg)

molecule="COC(=O)NC1=NC(c2cccc(OC)c2)CN1 (stereo unspecified)" reading_qualifier== quantitative_readout=700
molecule="COC(=O)NC1=NC(c2ccc(Cl)cc2)CN1C (stereo unspecified)" reading_qualifier== quantitative_readout=200
molecule="CCOc1ccccc1OCC1CNCCO1 (stereo unspecified) [VILOXAZINE]" reading_qualifier== quantitative_readout=200
molecule="CCOC(=O)NC1=NC(c2ccccc2Cl)CN1C (stereo unspecified)" reading_qualifier== quantitative_readout=200
molecule="CCOC(=O)NC1=NCC2c3ccccc3CCN12 (stereo unspecified)" reading_qualifier== quantitative_readout=200
molecule="CCOC(=O)NC1=NC(c2cccc(C)c2C)CN1C (stereo unspecified)" reading_qualifier== quantitative_readout=300
molecule="COC(=O)NC1=NC(c2ccccc2)C(C)N1 (stereo unspecified)" reading_qualifier== quantitative_readout=200
molecule="COC(=O)NC1=NCC2c3ccccc3CCN12 (stereo unspecified)" reading_qualifier== quantitative_readout=200
molecule="NC1=NC(c2ccccc2)CN1 (stereo unspecified)" reading_qualifier== quantitative_readout=300
molecule="COC(=O)NC1=NC(c2ccccc2SC)CN1C (stereo unspecified)" reading_qualifier== quantitative_readout=200
molecule="COC(=O)NC1=NC(c2ccc3c(c2)OCO3)CN1 (stereo unspecified)" reading_qualifier== quantitative_readout=200
molecule="CCC(=O)NC1=NC(c2ccccc2)CN1 (stereo unspecified)" reading_qualifier== quantitative_readout=500
molecule="CCOC(=O)NC1=NC(c2cccc(Cl)c2)CN1C (stereo unspecified)" reading_qualifier== quantitative_readout=300
molecule="COC(=O)NC1=NC(c2c(Cl)cccc2Cl)CN1 (stereo unspecified)" reading_qualifier== quantitative_readout=300
molecule="COC(=O)NC1=NC(c2ccc(CO)cc2)CN1C (stereo unspecified)" reading_qualifier=> quantitative_readout=1000
molecule="COC(=O)NC1=NC2c3ccccc3CC2N1 (stereo unspecified)" reading_qualifier== quantitative_readout=700

---

ED50: recorded values
organism: Mus musculus; assay: Compound was evaluated for maximal electroshock antagonism (MES) against mice; assay type: functional
parameter: ED50 (mg/kg)

molecule="COC(=O)NC1=NC(c2cc(Cl)cc(Cl)c2)CN1C (centres undefined)" readout_unit=mg/kg quantitative_readout=44
molecule="COC(=O)NC1=NC(c2ccccc2)CN1C (centres undefined)" readout_unit=mg/kg quantitative_readout=107
molecule="COC(=O)NC1=NC(c2ccccc2C)CN1 (centres undefined)" readout_unit=mg/kg quantitative_readout=55
molecule="COC(=O)NC1=NC2(CCc3ccccc32)CN1 (centres undefined)" readout_unit=mg/kg quantitative_readout=75
molecule="COC(=O)NC1=NC(c2cccc(Cl)c2Cl)CN1C (centres undefined)" readout_unit=mg/kg quantitative_readout=30
molecule="CCOC(=O)NC1=NC(c2ccc(F)cc2)CN1C (centres undefined)" readout_unit=mg/kg quantitative_readout=100
molecule="CCOc1ccccc1OCC1CNCCO1 (centres undefined) [VILOXAZINE]" readout_unit=mg/kg quantitative_readout=17
molecule="COC(=O)NC1=NCC(c2c(Cl)cccc2Cl)N1C (centres undefined)" readout_unit=mg/kg quantitative_readout=22
molecule="CCN1CC(c2ccccc2)N=C1NC(=O)OC (centres undefined)" readout_unit=mg/kg quantitative_readout=66
molecule="COC(=O)NC1=NC(c2ccccc2Cl)CN1 (centres undefined)" readout_unit=mg/kg quantitative_readout=50
molecule="COC(=O)NC1=NC(c2ccccc2)C(C)N1 (centres undefined)" readout_unit=mg/kg quantitative_readout=90
molecule="CC(C)OC(=O)NC1=NC(c2ccccc2F)CN1C (centres undefined)" readout_unit=mg/kg quantitative_readout=23
molecule="CCCOC(=O)NC1=NC(c2ccccc2F)CN1C (centres undefined)" readout_unit=mg/kg quantitative_readout=23
molecule="COC(=O)NC1=NC(c2ccccc2C)CN1C (centres undefined)" readout_unit=mg/kg quantitative_readout=68
molecule="CCOC(=O)NC1=NC(c2ccccc2)CN1C (centres undefined)" readout_unit=mg/kg quantitative_readout=78
molecule="CCOC(=O)NC1=NC(c2ccccc2Cl)CN1C (centres undefined)" readout_unit=mg/kg quantitative_readout=28
molecule="COC(=O)NC1=NC(c2ccccc2Cl)CN1C (centres undefined)" readout_unit=mg/kg quantitative_readout=28
molecule="COC(=O)NC1=NC(c2cc(Br)ccc2Br)CN1C (centres undefined)" readout_unit=mg/kg quantitative_readout=45
molecule="COC(=O)NC1=NC(c2cccc(F)c2)CN1 (centres undefined)" readout_unit=mg/kg quantitative_readout=70
molecule="COC(=O)NC1=NC(c2ccc(SC)cc2)CN1C (centres undefined)" readout_unit=mg/kg quantitative_readout=100
molecule="COC(=O)NC1=NC(c2ccccc2F)CN1C (centres undefined)" readout_unit=mg/kg quantitative_readout=74
molecule="CCOC(=O)NC1=NC(c2cccc(Cl)c2)CN1C (centres undefined)" readout_unit=mg/kg quantitative_readout=74
molecule="COC(=O)NC1=NC(c2cccc(Cl)c2)CN1 (centres undefined)" readout_unit=mg/kg quantitative_readout=48
molecule="COC(=O)NC1=NC(c2cccc(C)c2)CN1 (centres undefined)" readout_unit=mg/kg quantitative_readout=100
molecule="CN(C)CCCN1c2ccccc2CCc2ccccc21 [IMIPRAMINE]" readout_unit=mg/kg quantitative_readout=15
molecule="CC(C)OC(=O)NC1=NC(c2cccc(Cl)c2)CN1 (centres undefined)" readout_unit=mg/kg quantitative_readout=79
molecule="COC(=O)NC1=NC2c3ccccc3CC2N1 (centres undefined)" readout_unit=mg/kg quantitative_readout=44
molecule="CN(C)CCC=C1c2ccccc2COc2ccccc21 [DOXEPIN]" readout_unit=mg/kg quantitative_readout=16
molecule="CCOC(=O)NC1=NC(c2cccc(C)c2C)CN1C (centres undefined)" readout_unit=mg/kg quantitative_readout=70
molecule="COC(=O)NC1=NC(c2cccc(Cl)c2)CN1C (centres undefined)" readout_unit=mg/kg quantitative_readout=100
molecule="CCC(=O)NC1=NC(c2ccccc2)CN1 (centres undefined)" readout_unit=mg/kg quantitative_readout=75
molecule="COC(=O)NC1=NC(c2ccccc2Br)CN1 (centres undefined)" readout_unit=mg/kg quantitative_readout=62
molecule="COC(=O)NC1=NC(c2cccc(C)c2)CN1C (centres undefined)" readout_unit=mg/kg quantitative_readout=89
molecule="COC(=O)NC1=NC(c2ccccc2)CN1Cc1ccccc1 (centres undefined)" readout_unit=mg/kg quantitative_readout=100
molecule="COC(=O)NC1=NC(c2cccc(OC)c2)CN1C (centres undefined)" readout_unit=mg/kg quantitative_readout=128
molecule="CC(C)OC(=O)NC1=NC(c2ccccc2Cl)CN1C (centres undefined)" readout_unit=mg/kg quantitative_readout=35
molecule="COC(=O)NC1=NC(c2ccccc2F)CN1 (centres undefined)" readout_unit=mg/kg quantitative_readout=54
molecule="COC(=O)NC1=NC(c2ccc(Cl)cc2)CN1C (centres undefined)" readout_unit=mg/kg quantitative_readout=66
molecule="COC(=O)NC1=NC(c2cc(F)ccc2F)CN1 (centres undefined)" readout_unit=mg/kg quantitative_readout=49
molecule="COC(=O)NC1=NCC(c2cccc(Cl)c2)N1C (centres undefined)" readout_unit=mg/kg quantitative_readout=31
molecule="CC(C)COC(=O)NC1=NC(c2ccccc2)CN1C (centres undefined)" readout_unit=mg/kg quantitative_readout=70
